system: arteriovenous bypass thrombi; test: Antithrombotic activity in vivo: arteriovenous bypass thrombosis in rats; set-up: species or system SD rats; settings: Rattus norvegicus, po, single gavage 15 mg/kg, vs blank control, read-out: Inhibition rate (thrombus wet weight)
Reported inhibition at 15 mg/kg values for a set of compounds
assay_metric: inhibition at 15 mg/kg (%)

INSERT INTO measurements (compound, unit_abbrev, experimental_result) VALUES
  ('COc1cc(C(=O)Nc2ccc(C[C@H](N)C(=O)O)cc2)ccc1OCCn1ccnc1.Cl [Example 7, hydrochloride]', '%', 46.2),
  ('COc1cc(C(=O)OC(C)C)ccc1OCCn1ccnc1.Cl [Example 2, hydrochloride]', '%', 48.3),
  ('COc1cc(C(=O)OC(C)OC(C)=O)ccc1OCCn1ccnc1 (stereo not shown)', '%', 55.4),
  ('COC(=O)c1ccc(OCCn2ccnc2)c(OC)c1 [Compound A methyl ester, reference compound]', '%', 29.4);
